meta.source: the supplement of paper PMC10567573

B1: ESRRA (parent)
chain: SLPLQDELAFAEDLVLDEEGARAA

Variants of: B1
Experiment: protein stability index of a GFP-peptide fusion (GPS, HEK-293T) (PSI 1-6); higher = more stable;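 further: lentivirally expressed fusions sorted by FACS into six bins by GFP to DsRed ratio, PSI derived from sequencing read proportions per bin multiplied by bin number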
Settings: c terminus: a fixed tail appended
observation type: protein stability index

> print(dat)
    variant.name         observation.type  measured.result
 1           E7S  protein stability index             3.29
 2           E7I  protein stability index             2.46
 3           S1V  protein stability index             2.89
 4          D17E  protein stability index              3.7
 5          F10S  protein stability index             3.04
 6          A23D  protein stability index             3.39
 7          A23W  protein stability index             2.44
 8          A23P  protein stability index             3.35
 9          V15D  protein stability index             4.89
10          G20I  protein stability index             3.08
11           L8D  protein stability index             5.43
12           Q5H  protein stability index             3.66
13           E7T  protein stability index              4.4
14           L2A  protein stability index             4.07
15           D6M  protein stability index             3.77
16          E18Y  protein stability index             2.99
17          A11M  protein stability index              5.4
18          E12Q  protein stability index             4.71
19          V15N  protein stability index             5.68
20           P3N  protein stability index             4.08
21           L2I  protein stability index             2.78
22          D17N  protein stability index             2.86
23          F10K  protein stability index             2.83
24           L4N  protein stability index             5.36
25           P3V  protein stability index             4.91
26          L14N  protein stability index             5.38
27          E19R  protein stability index             2.02
28          G20K  protein stability index              3.4
29           S1H  protein stability index             2.89
30           A9W  protein stability index             3.68
31           L4I  protein stability index             4.43
